Molecular target: phage displayed HA gene fragment P66-I282 (Influenza A virus A/California/07/2009 …, UniProt C3W5X2)
Experiment: ELISA
Details: both partners purified
RECORDED_ENDPOINT: binding result

R2a-G8 (VHH, source: E. coli WK6 periplasm, purified (Talon IMAC, Superdex 75 SEC)) VHH: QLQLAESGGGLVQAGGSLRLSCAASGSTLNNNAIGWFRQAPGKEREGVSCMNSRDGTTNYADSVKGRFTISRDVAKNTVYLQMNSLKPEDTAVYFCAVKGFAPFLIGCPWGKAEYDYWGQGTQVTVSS; no binding
R2b-E8 (VHH, source: E. coli WK6 periplasm, purified (Talon IMAC, Superdex 75 SEC)) VHH: QVQLVESGGGLVQPGGSLRLSCAASGSFFSRYRMGWYRQAPGEQRELVAGITYDDSTNYAGSVKGRFTISRDNAKNTVHLQMNSLKPEDTAVYYCNLNPPGNLYWGQGTQVTVSS; no binding
R2a-H9 (VHH, source: E. coli WK6 periplasm, purified (Talon IMAC, Superdex 75 SEC)) VHH: QVQLVESGGGLVQPGGSLRLSCAASTNIASFYTMGWYRQTPGQQRDVVAVIGNGGNTNYADSVKGRFTISRDGAKNTAHLQMNSLKPEDTDVYYCKASGPGGVILWGQGTQVTVSS; binds
